Test system: larvae of brown rice planthopper (Nilaparvata lugens)
Experiment: Insecticidal effect on larvae of brown rice planthopper, rice roots in agent solution (systemic, Test Example 6)
Format: in vivo
Details: 0.2 ppm agent solution at rice roots, 4th day
Recorded Death Rate (%) at Each Concentration of Active Ingrediet, one value per entry.
MEASURED PROPERTY: Death Rate (%) at Each Concentration of Active Ingrediet

COMPOUND | EXPERIMENTAL TARGET | UNIT ABBREV | VALUE REPORTED
CSc1c(C#N)nn(-c2c(Cl)cc(C(F)(F)F)cc2Cl)c1NCc1cnccn1 [IV] | larvae of brown rice planthopper (Nilaparvata lugens) | % | 100
N#Cc1nn(-c2c(Cl)cc(C(F)(F)F)cc2Cl)c(NCc2cnccn2)c1[S+]([O-])C(F)(F)F (stereo not drawn) [Compound 5] | larvae of brown rice planthopper (Nilaparvata lugens) | % | 100
N#Cc1nn(-c2c(Cl)cc(C(F)(F)F)cc2Cl)c(N)c1[S+]([O-])C(F)(F)F (stereo not drawn) [I] | larvae of brown rice planthopper (Nilaparvata lugens) | % | 33
N#Cc1nn(-c2c(Cl)cc(C(F)(F)F)cc2Cl)c(NCc2cc[n+]([O-])cc2)c1SC(F)(F)F [III] | larvae of brown rice planthopper (Nilaparvata lugens) | % | 92
N#Cc1nn(-c2c(Cl)cc(C(F)(F)F)cc2Cl)c(NCc2cnccn2)c1SC(F)(F)F [V] | larvae of brown rice planthopper (Nilaparvata lugens) | % | 55
C[S+]([O-])c1c(C#N)nn(-c2c(Cl)cc(C(F)(F)F)cc2Cl)c1NCc1cnccn1 (stereo not drawn) [Compound 1] | larvae of brown rice planthopper (Nilaparvata lugens) | % | 100

====

Test system: Oryzias latipes
Experiment: Test on toxicity to fish using Oryzias latipes (Test Example 7)
Type: in vivo
Details: death rate, 0.5 ppm aqueous solution, adult Oryzias latipes, after 48 hours
MEASURED PROPERTY: Toxicity to fish (%)

MOLECULE | MEASURED PROPERTY | VALUE REPORTED
N#Cc1nn(-c2c(Cl)cc(C(F)(F)F)cc2Cl)c(N)c1[S+]([O-])C(F)(F)F (stereo not drawn) | Toxicity to fish (%) | 100%
N#Cc1nn(-c2c(Cl)cc(C(F)(F)F)cc2Cl)c(NCc2cc[n+]([O-])cc2)c1SC(F)(F)F | Toxicity to fish (%) | 60%
CSc1c(C#N)nn(-c2c(Cl)cc(C(F)(F)F)cc2Cl)c1NCc1cnccn1 | Toxicity to fish (%) | 100%
N#Cc1nn(-c2c(Cl)cc(C(F)(F)F)cc2Cl)c(NCc2ccncc2)c1SC(F)(F)F | Toxicity to fish (%) | 80%
N#Cc1nn(-c2c(Cl)cc(C(F)(F)F)cc2Cl)c(NCc2cnccn2)c1SC(F)(F)F | Toxicity to fish (%) | 100%
C[S+]([O-])c1c(C#N)nn(-c2c(Cl)cc(C(F)(F)F)cc2Cl)c1NCc1cnccn1 (stereo not drawn) | Toxicity to fish (%) | 0%
